From: patent US7026443

Entries and their binding affinity ratio (IC50 of the standard peptide / IC50 of the test peptide) values follow.
# EXPERIMENTAL_SYSTEM: HLA-A*0201 (human)
EXPERIMENTAL_READOUT: binding affinity ratio (IC50 of the standard peptide / IC50 of the test peptide)

BINDER: FVNSTSHFWL (modifications not checked) [HPV18 E1 peptide … (position 508, 10 amino acids)]
REPORTED_VALUE: 0.062

BINDER: EITCVYCKTV (modifications not checked) [HPV18 E6 29 …]
REPORTED_VALUE: 0.0002

BINDER: CVYCKTVL (modifications not checked) [HPV18 E6 32 CVYCKTVL]
REPORTED_VALUE: 0.0002

BINDER: FILYAHIQCL (modifications not checked) [HPV18 E1 peptide … (position 265, 10 amino acids)]
REPORTED_VALUE: 0.032

BINDER: FLGALKSFL (modifications not checked) [HPV18 E1 peptide … (position 463, 9 amino acids)]
REPORTED_VALUE: 0.045

BINDER: FLRYQQIEFI (modifications not checked) [HPV18 E1 peptide … (position 452, 10 amino acids)]
REPORTED_VALUE: 0.0025

BINDER: CVYCKTVLEL (modifications not checked) [HPV18 E6 32 …]
REPORTED_VALUE: 0.0001
